system: P12-Ichikawa; test: cell viability relative to DMSO control; higher = less cytotoxic; settings: RPMI 5 mM glucose + 10% dialyzed FBS; 48 h; 15.4 µM
The entries below are paired with their reported cell viability.
// note: answer is a bare numeric in %

Some solved entries appear below for comparison.
>  <Compound Structure String>
O=C(NC[C@H](O)CO)c1ccncc1Nc1ccc(I)cc1F

>  <cell viability [%]>
96.6

$$$$
>  <Compound Structure String>
S=P(N1CC1)(N1CC1)N1CC1

>  <cell viability [%]>
89.9

$$$$
>  <Compound Structure String>
O=C(Nc1ccc(F)c(C(F)(F)F)c1)Nc1nnc(-c2ccncc2)s1

>  <cell viability [%]>
106

$$$$

Query the reported cell viability for P12-Ichikawa; item: CC(C)=CC[C@@H](O)C/1=C/C(=O)C2=C(O)C=CC(=C2C1=O)O 55.2

Also CNc1nccc(-c2cccnc2Oc2cc(C(=O)Nc3cccc(C(F)(F)F)c3)ccc2C)n1 , if possible. 90.7

###

test system: P12-Ichikawa; assay: AUC of viability dose-response curve (% viability x log10 dose units); higher = less sensitive; conditions: HPLM + 10% dialyzed FBS; 48 h
// reported AUC of viability dose-response curve per item
# respond with the number and nothing more

Consider the following illustrative entries.
>  <Compound>
COc1ccc(C(C)=O)c(O)c1

>  <AUC of viability dose-response curve>
422

$$$$
>  <Compound>
CC1COC2(CCN(CC2)C/3=N/C(=O)C4=CC(=CC(=C4S3)[N+]([O-])=O)C(F)(F)F)O1 (stereo not drawn)

>  <AUC of viability dose-response curve>
448

$$$$
>  <Compound>
Cc1cn(-c2cc(NC(=O)c3ccc(C)c(Nc4nccc(-c5cccnc5)n4)c3)cc(C(F)(F)F)c2)cn1

>  <AUC of viability dose-response curve>
328

$$$$
>  <Compound>
FC(F)c1nc2ccccc2n1-c1nc(N2CCOCC2)nc(N2CCOCC2)n1

>  <AUC of viability dose-response curve>
413

$$$$
>  <Compound>
CC(C)CC(=O)N[C@H](C(=O)N[C@H](C(=O)N[C@@H](CC(C)C)[C@@H](O)CC(=O)N[C@@H](C)C(=O)N[C@@H](CC(C)C)[C@@H](O)CC(=O)O)C(C)C)C(C)C

>  <AUC of viability dose-response curve>
471

$$$$
>  <Compound>
CCN1\C=C(\C(O)=O)C(=O)C2=CC=C(C)N=C12

>  <AUC of viability dose-response curve>
466

$$$$
>  <Compound>
O=C(O)C1=NC(C(=O)O)CC(/C=C/N2c3cc(O)c(OC4OC(CO)C(O)C(O)C4O)cc3CC2C(=O)O)=C1 (stereo not drawn)

>  <AUC of viability dose-response curve>
463

$$$$
>  <Compound>
CC(C)C[C@H](NC(=O)[C@H](CCc1ccccc1)NC(=O)CN1CCOCC1)C(=O)N[C@@H](Cc1ccccc1)C(=O)N[C@@H](CC(C)C)C(=O)[C@@]1(C)CO1

>  <AUC of viability dose-response curve>
162

$$$$

For the compound shown here, CCC(C)(Oc1ccc(C2(c3ccc(OC(C)(CC)C(=O)O)cc3)CCCCC2)cc1)C(=O)O (stereo not drawn) , give the reported AUC of viability dose-response curve. 458

Next up: O=C(O[C@H]1C[C@H]2CC[C@@H](C1)[N+]21CCCC1)C(O)(c1ccccc1)c1ccccc1.[Cl-] 461

Then CN[C@@H]1[C@H](O)[C@H](NC)[C@H]2O[C@@]3(O)C(=O)C[C@@H](C)O[C@H]3O[C@@H]2[C@H]1O ? 457

// query: CN(C)CCc1ccc(O)cc1 448

Same thing, different compound: CCC(C)(C)c1ccc(CC(C)CN2C[C@@H](C)O[C@@H](C)C2)cc1 (stereo partly drawn) 424
